Origin of measurements: ChEMBL document CHEMBL1857833

- Test system: Trypanosoma brucei
- Test name: DNDI: Inhibition of Human African Trypanosomiasis, SBRI 427, in vitro at 2 ug.mL-1
- Assay type: functional
Screen size: about 4,400 compounds; about 390 (8.9%) showed an effect of 50% or more. What follows is part of a selection rich in strong results, with near analogues and random picks from the rest.
Examples of compounds with documented % inhibition follow.
Field format: number, assumed %, no unit text.

Example entries and their recorded answers appear below.
Cc1cccc(-c2nc(CNCc3ccc(C(C)(C)C)cc3)co2)c1	-9
Cc1ccc(Oc2ncccc2/C(=N/O)NCc2c(F)cccc2F)cc1	98
COc1ccccc1Oc1ncccc1/C(=N/O)NCc1ccco1	27
O/N=C(\NC1CCCCC1)c1cccnc1Oc1c(F)cccc1F	99
O/N=C(/c1ccc(Oc2cccc3c2CCCC3)nc1)N1CCOCC1	15
CC1CC(N/C(=N\O)c2cccnc2Oc2c(F)c(F)cc(F)c2F)CC(C)(C)C1 (stereo unspecified)	-10
CC(C)N/C(=N\O)c1cccnc1Oc1ccc(-n2cncn2)cc1	42
Brc1ccc(-c2nc(CNCCN3CCOCC3)co2)cc1	-53

Report % inhibition, nothing else, for this compound: C=CCc1ccc(Oc2nc(C)ccc2/C(=N/O)N2CCC(C(=O)OC)CC2)c(OC)c1
27

Report % inhibition, nothing else, for this compound: CCCN/C(=N\O)c1cccnc1Oc1ccccc1
8

Report % inhibition, nothing else, for this compound: COc1ccc(Oc2nc(C)ccc2/C(=N/O)NCC2CCCCC2)cc1
24

Report % inhibition, nothing else, for this compound: CC(CNCc1coc(-c2cccc3ccccc23)n1)c1ccccc1 (stereo unspecified)
8

Report % inhibition, nothing else, for this compound: Cc1cccc(Oc2ncccc2/C(=N/O)NCc2ccncc2)c1C
5

Report % inhibition, nothing else, for this compound: O/N=C(\NCc1cc(F)ccc1F)c1ccc(Oc2ccc(Cl)cc2)nc1
-8

Report % inhibition, nothing else, for this compound: COc1ccc(Oc2ncccc2/C(=N/O)NCC2CCCCC2)cc1
93

Report % inhibition, nothing else, for this compound: COc1cc(-c2nc(CNC(C)c3ccccc3)co2)cc(OC)c1OC (stereo unspecified)
0
